IC50 data for Aromatic-L-amino-acid decarboxylase (Sus scrofa) follow.

CC(C)C(=O)c1ccc(O)c(O)c1 :: > 50 µM
COc1cc(C(=O)/C=C/c2cc(O)c(O)c([N+](=O)[O-])c2)cc(OC)c1OC :: > 50 µM

# input for lookup
Query string: Request the reported IC50 associated with "O=C(/C=C/c1cc(O)c(O)c([N+](=O)[O-])c1)c1ccccc1"
Result string: > 50 µM

###

- System Under Test: UniProt:P09172
- Sequence (P09172 whole entry): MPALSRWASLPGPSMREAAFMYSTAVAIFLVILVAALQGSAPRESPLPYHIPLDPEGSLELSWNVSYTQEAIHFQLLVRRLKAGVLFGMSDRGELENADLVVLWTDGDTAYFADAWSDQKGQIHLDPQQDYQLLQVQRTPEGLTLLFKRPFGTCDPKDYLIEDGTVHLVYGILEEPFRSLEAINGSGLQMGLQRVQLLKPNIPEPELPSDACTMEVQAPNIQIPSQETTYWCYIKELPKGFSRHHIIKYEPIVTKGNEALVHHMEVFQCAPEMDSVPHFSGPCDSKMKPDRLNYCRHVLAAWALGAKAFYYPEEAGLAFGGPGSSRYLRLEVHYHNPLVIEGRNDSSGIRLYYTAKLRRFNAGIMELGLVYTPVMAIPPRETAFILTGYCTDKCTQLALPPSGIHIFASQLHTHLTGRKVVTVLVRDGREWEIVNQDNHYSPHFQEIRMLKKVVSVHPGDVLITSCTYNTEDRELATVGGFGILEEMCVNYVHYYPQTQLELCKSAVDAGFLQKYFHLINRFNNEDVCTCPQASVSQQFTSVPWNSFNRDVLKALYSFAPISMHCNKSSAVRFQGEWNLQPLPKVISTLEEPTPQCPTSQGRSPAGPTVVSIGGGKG
pIC50: −log10 of the molar value.
Field: pIC50. Provide a value for each of the compounds that follow.

Solved entries (count: 2):
CC(C)C(=O)c1ccc(O)c(O)c1 :: < 4.30
O=C(/C=C/c1cc(O)c(O)c([N+](=O)[O-])c1)c1ccccc1 :: < 4.30

Query string: Request the reported pIC50 associated with "COc1cc(C(=O)/C=C/c2cc(O)c(O)c([N+](=O)[O-])c2)cc(OC)c1OC"
Result string: < 4.30

###

Field: pIC50. Provide a value for each of the molecules that follow.
- System Under Test: UniProt:P22734
- Sequence (P22734 whole entry): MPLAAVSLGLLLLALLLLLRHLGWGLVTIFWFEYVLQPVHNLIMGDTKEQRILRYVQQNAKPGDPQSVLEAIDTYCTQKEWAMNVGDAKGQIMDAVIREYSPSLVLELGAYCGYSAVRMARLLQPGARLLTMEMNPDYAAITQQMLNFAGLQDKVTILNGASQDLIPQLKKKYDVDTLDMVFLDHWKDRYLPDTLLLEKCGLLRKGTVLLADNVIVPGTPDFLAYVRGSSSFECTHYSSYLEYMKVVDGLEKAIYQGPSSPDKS
Answers are plain numbers, as −log10 of the molar value.

Could you report pIC50 for every entry in the following list?
1. N#CC(C#N)=Cc1cc(O)c(O)c([N+](=O)[O-])c1
2. O=Cc1cc(O)c(O)c([N+](=O)[O-])c1 [3,4-DIHYDROXY-5-NITROBENZALDEHYDE]
3. O=C(NC12CC3CC(CC(C3)C1)C2)c1cc(O)c(O)c([N+](=O)[O-])c1
4. O=[N+]([O-])c1cc(Cl)cc(O)c1O

Result string:
1: 7.70; 2: 7.62; 3: 7.72; 4: 7.60

Could you report pIC50 for every entry in the following list?
1. CC(=O)/C(C)=C/c1cc(O)c(O)c([N+](=O)[O-])c1
2. CCOC(=O)/C(C#N)=C/c1cc(O)c(O)c([N+](=O)[O-])c1
3. N#Cc1cc(O)c(O)c([N+](=O)[O-])c1
4. O=[N+]([O-])c1cc(CO)cc(O)c1O
5. COc1cc(C(=O)/C=C/c2cc(O)c(O)c([N+](=O)[O-])c2)cc(OC)c1OC
6. O=C(NC12CC3CC(CC(C3)C1)C2)c1cc(O)c(O)c(Cl)c1
7. O=C(/C=C/c1cc(O)c(O)c([N+](=O)[O-])c1)c1ccccc1
8. N#Cc1cc(C(=O)NC23CC4CC(CC(C4)C2)C3)cc(O)c1O

Result string:
7.92
7.30
7.52
6.74
8.30
6.40
8.22
7.05

###

Field: IC50. Provide a value for each of the molecules that follow.
Sequence of the target: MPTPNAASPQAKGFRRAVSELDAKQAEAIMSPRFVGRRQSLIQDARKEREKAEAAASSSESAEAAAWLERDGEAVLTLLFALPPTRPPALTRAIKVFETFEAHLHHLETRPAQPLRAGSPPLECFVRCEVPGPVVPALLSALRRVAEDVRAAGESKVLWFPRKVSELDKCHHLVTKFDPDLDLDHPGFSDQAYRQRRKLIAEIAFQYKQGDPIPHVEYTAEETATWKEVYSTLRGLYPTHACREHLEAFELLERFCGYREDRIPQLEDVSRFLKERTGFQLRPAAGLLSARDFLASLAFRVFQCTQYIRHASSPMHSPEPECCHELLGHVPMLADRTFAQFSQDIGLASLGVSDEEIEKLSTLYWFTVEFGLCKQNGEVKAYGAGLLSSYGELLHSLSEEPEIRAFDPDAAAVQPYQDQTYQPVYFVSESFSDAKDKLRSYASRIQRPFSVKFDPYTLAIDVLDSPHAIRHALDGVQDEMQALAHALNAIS

CC(C)C(=O)c1ccc(O)c(O)c1 :: 24 µM
O=C(/C=C/c1cc(O)c(O)c([N+](=O)[O-])c1)c1ccccc1 :: 50 µM

# input for lookup
Query string: Request the reported IC50 associated with "COc1cc(C(=O)/C=C/c2cc(O)c(O)c([N+](=O)[O-])c2)cc(OC)c1OC"
Result string: 21 µM

###

- System Under Test: Catechol O-methyltransferase (Rattus norvegicus, UniProt P22734)
- Sequence (P22734 whole entry): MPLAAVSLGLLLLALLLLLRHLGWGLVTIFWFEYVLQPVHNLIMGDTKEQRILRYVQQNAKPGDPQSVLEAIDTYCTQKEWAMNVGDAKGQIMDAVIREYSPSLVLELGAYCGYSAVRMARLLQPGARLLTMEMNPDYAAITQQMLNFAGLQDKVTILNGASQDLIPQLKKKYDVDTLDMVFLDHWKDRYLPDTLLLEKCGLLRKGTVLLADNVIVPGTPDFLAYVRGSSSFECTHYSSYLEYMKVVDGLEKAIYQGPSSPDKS
Readout Kind: pIC50
Answers are plain numbers, as −log10 of the molar value.

N#Cc1cc(C=O)cc(O)c1O :: 6.80
O=C(O)c1cc(O)c(O)c([N+](=O)[O-])c1 :: 6.21
O=Cc1cc(O)c(O)c(C=O)c1 :: 6.80
CN(C)C(=O)/C(C#N)=C/c1cc(O)c(O)c([N+](=O)[O-])c1 :: 7.74
O=C(O)CCCCc1cc(O)c(O)c(Cl)c1 :: 5.10
CS(=O)(=O)c1cc(C=O)cc(O)c1O :: 4.70
O=C(O)CCCCc1cc(O)c(O)c([N+](=O)[O-])c1 :: 7.05
O=C1/C(=C/c2cc(O)c(O)c([N+](=O)[O-])c2)CC/C1=C\c1cc(O)c(O)c([N+](=O)[O-])c1 :: 8.52
O=C(NC12CC3CC(CC(C3)C1)C2)c1cc(O)c(O)cc1[N+](=O)[O-] :: 5.96
CC(=O)c1cc(O)c(O)c([N+](=O)[O-])c1 :: 7.80

# input for lookup
Query string: Request the reported pIC50 associated with "CC(=O)C(=Cc1cc(O)c(O)c([N+](=O)[O-])c1)C(C)=O"
Result string: 7.74

Cited source: ChEMBL document CHEMBL1124446
